What inhibition at 2 µM was measured for each of the following?
# target_under_test: human GPR84 receptor (Homo sapiens)
# Construct: host or cells: HEK293 cells, transient transfection
# Sequence (Q9NQS5 whole entry): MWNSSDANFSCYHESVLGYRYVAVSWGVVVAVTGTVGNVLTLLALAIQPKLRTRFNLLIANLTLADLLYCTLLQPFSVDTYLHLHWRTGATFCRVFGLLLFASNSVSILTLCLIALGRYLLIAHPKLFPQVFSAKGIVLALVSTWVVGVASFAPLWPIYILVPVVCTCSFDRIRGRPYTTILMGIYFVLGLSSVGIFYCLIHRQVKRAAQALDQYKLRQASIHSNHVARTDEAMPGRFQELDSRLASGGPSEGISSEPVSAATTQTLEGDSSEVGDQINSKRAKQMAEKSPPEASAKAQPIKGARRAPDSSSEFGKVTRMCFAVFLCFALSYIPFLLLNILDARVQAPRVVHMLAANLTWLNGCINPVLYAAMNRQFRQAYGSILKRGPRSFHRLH
# measurement_description: Gαi biosensor BRET assay in HEK293 cells transfected with GPR84, stimulated with the GPR84 agonist ZQ-16
# Type: cell-based
# condition_details: HEK293, single concentration, concentration class A = 2 μM, 200 nmol/L ZQ-16

Form field inhibition at 2 µM, entry `CC1(C)COC(Cn2cc(-c3ncc(C#CC4(O)CC4)cc3OC3CC3)nn2)OC1` : > 75%

Form field inhibition at 2 µM, entry `C(#Cc1cnc(-c2cn(CC3OCC4(CC4)CO3)nn2)c(OC2CC2)c1)CN1CC2(CC2)C1` : > 75%

Form field inhibition at 2 µM, entry `FC1(F)CC12CN(CC#Cc1cnc(-c3cn(CC4OCC5(CC5)CO4)nn3)c(OC3CC3)c1)C2` : > 75%

Form field inhibition at 2 µM, entry `c1nc(-c2cn(CC3OCC4(CC4)CO3)nn2)c(OC2CC2)cc1-c1cnn[nH]1` : > 75%

Form field inhibition at 2 µM, entry `OC1(C#Cc2cnc(-c3cn(CC4OCC5(CC5)CO4)nn3)c(OC3CC3)c2)CC1` : > 75%

Form field inhibition at 2 µM, entry `C(#Cc1ccc(-c2cn(CC3OCC4(CC4)CO3)nn2)c(C2CC2)c1)COC1CC1` : > 75%

Form field inhibition at 2 µM, entry `CC(=O)NCC#Cc1cnc(-c2cn(CC3OCC(C)(C)CO3)nn2)c(OC2CC2)c1` : > 75%

Form field inhibition at 2 µM, entry `CN(C)C(=O)Cn1cc(-c2nc(O)c(C#CC3CC3)cc2OC2CC2)nn1` : ≤ 25%

Form field inhibition at 2 µM, entry `CC1(C)COC(Cn2cc(-c3ncc(C#CCNS(C)(=O)=O)cc3OC3CC3)nn2)OC1` : > 75%

Form field inhibition at 2 µM, entry `CC1(C)COC(Cn2cc(-c3ncc(C#CCNC4CC(F)(F)C4)cc3OC3CC3)nn2)OC1` : > 75%

Form field inhibition at 2 µM, entry `CC1(C)CN(CC#Cc2cnc(-c3cn(CC4OCC5(CC5)CO4)nn3)c(CC3CC3)c2)C1` : > 75%

Form field inhibition at 2 µM, entry CC(O)C1(C)CN(c2ccc(-c3cn(CC4OCC5(CC5)CO4)nn3)c(N(C)C)c2)C1 (centres unmarked) : > 75%

Form field inhibition at 2 µM, entry `CN(C)c1cc(N2CC(C)(CO)C2)ccc1-c1cn(CC2OCC3(CC3)CO2)cn1` : > 75%

Form field inhibition at 2 µM, entry `Cn1cc(-c2cnc(-c3cn(CC4OCC5(CC5)CO4)nn3)c(OC3CC3)c2)nn1` : > 75%

Form field inhibition at 2 µM, entry `C(#CC1CC1)c1cnc(-c2cnn(CC3OCC4(CC4)CO3)c2)c(OC2CC2)c1` : > 75%

Form field inhibition at 2 µM, entry `Cn1ccc(-c2cnc(-c3cn(CC4OCC5(CC5)CO4)nn3)c(OC3CC3)c2)n1` : > 75%

Form field inhibition at 2 µM, entry `Cn1ncc(-c2cnc(-c3cn(CC4OCC5(CC5)CO4)nn3)c(OC3CC3)c2)n1` : > 75%

Form field inhibition at 2 µM, entry `C(#CC1CC1)c1cnc(-c2cn(C[C@H]3CCCCO3)cn2)c(OC2CC2)c1` : > 75%

Form field inhibition at 2 µM, entry `c1cc(-c2cnc(-c3cn(CC4OCC5(CC5)CO4)nn3)c(OC3CC3)c2)n[nH]1` : > 75%

Form field inhibition at 2 µM, entry `O=C(Cn1cc(-c2nc(O)c(C#CC3CC3)cc2OC2CC2)nn1)N1CCCC1` : ≤ 25%

Form field inhibition at 2 µM, entry `Cc1cc(C#CC2CC2)ccc1-c1cn(Cc2cncs2)nn1` : ≤ 25%

Form field inhibition at 2 µM, entry `Cc1ccc(C2CC2)nc1-c1cn(CC2OCC(C)(C)CO2)nn1` : ≤ 25%

Form field inhibition at 2 µM, entry `Cn1nnc(-c2cnc(-c3cn(CC4OCC5(CC5)CO4)nn3)c(OC3CC3)c2)n1` : > 75%

Form field inhibition at 2 µM, entry Cc1ccc(C#CC2CC2)cc1C(F)(F)c1cn(CC2CCCCO2)nn1 (centres unmarked) : 50 to 75%

Form field inhibition at 2 µM, entry `CC1(C)COC(Cn2cc(-c3ncc(C#CCN4CC(C)(CO)C4)cc3OC3CC3)nn2)OC1` : > 75%

Form field inhibition at 2 µM, entry `CC1(C)COC(Cn2cc(-c3ncc(C#CCNC4COC4)cc3OC3CC3)nn2)OC1` : > 75%

Form field inhibition at 2 µM, entry `Cc1ccc(C#CC2CC2)cc1C(F)(F)c1cn(CC2OCC3(CC3)CO2)nn1` : > 75%

Form field inhibition at 2 µM, entry `CN(C)c1cc(C#CC2(O)CC2)ccc1-c1cn(CC2OCC(C)(C)CO2)nn1` : > 75%

Form field inhibition at 2 µM, entry `c1ncc(-c2cnc(-c3cn(CC4OCC5(CC5)CO4)nn3)c(OC3CC3)c2)[nH]1` : > 75%

Form field inhibition at 2 µM, entry `Cc1cc(C#CC2CC2)ccc1-c1cn(Cc2cscn2)nn1` : ≤ 25%

Form field inhibition at 2 µM, entry `Cc1ccc(C#CC2CC2)cc1C(F)(F)c1cn(CC(=O)N(C)C)nn1` : 25 to 50%

Form field inhibition at 2 µM, entry OC1CC2(C1)CN(CC#Cc1cnc(-c3cn(CC4OCC5(CC5)CO4)nn3)c(OC3CC3)c1)C2 (centres unmarked) : > 75%

# credit: patent US20260256747A1
